# assay-summary: Clearance in C57BL/6 mouse at 1 mg/kg, iv by LC-MS/MS analysis
# Assay type: ADME, organism-based
# test-settings: in vivo
readout-type: clearance (mL/min/kg)
Reply numerically in mL/min/kg, unit not repeated.

Below, each entry is followed by its recorded clearance result.
compound-string	readout-units	clearance
C[C@H]1NC(=O)[C@H](CCCCN)NC(=O)CCSCc2cccc(c2)CSCCNC(=O)[C@]2(C)CCCN2C(=O)[C@H](Cc2ccc(O)cc2)NC(=O)[C@H](Cc2cnc[nH]2)NC(=O)[C@H](CC(=O)O)NC(=O)[C@H](Cc2c[nH]c3ccc(F)cc23)NC(=O)[C@H](Cc2c[nH]c3ccc(F)cc23)NC1=O	mL/min/kg	24.2
CC(C)[C@H]1NC(=O)[C@H](CCCCN)NC(=O)CCSCc2cccc(c2)CSCCNC(=O)[C@]2(C)CCCN2C(=O)[C@H](Cc2ccc(O)cc2)NC(=O)[C@H](Cc2cnc[nH]2)NC(=O)[C@H](CC(=O)O)NC(=O)[C@H](Cc2c[nH]c3ccc(F)cc23)NC(=O)[C@H](Cc2c[nH]c3ccc(F)cc23)NC1=O	mL/min/kg	4.62

Read the next record carefully.
Input line: Data request, read-out clearance, for "COc1ccc(C[C@@H]2NC(=O)[C@H]([C@@H](C)O)NC(=O)[C@@H]3CCC(=O)NCc4cccc(c4)C[C@H](NC(=O)[C@@H](C)NC(=O)[C@H](C)NC(=O)CCSCc4cccc(c4)CSCCNC(=O)[C@]4(C)CCCN4C2=O)C(=O)N[C@@H](Cc2c[nH]c4ccc(F)cc24)C(=O)N3)cc1"
Output line: 16

----------
# assay-summary: Half life in C57BL/6 mouse at 1 mg/kg, iv by LC-MS/MS analysis
# Type: ADME, organism-based
# test-settings: in vivo
Numbered stars: 1 amine (or outer) side, 2 acyl side, 3 side chain; on linkers, the order of the positions; unused ones are H or OH. Square brackets hold non-standard residues; d marks the D form. Peptide text beside a SMILES is read from it. Trp(5-F) = N[C@@H](Cc1c[nH]c2ccc(F)cc12)C(=O)O; Lys(Me3) = C[N+](C)(C)CCCC[C@H](N)C(=O)O; X1 = O=C(CCSCc1cccc(CSCCN[*:1])c1)[*:2]; αMeP = C[C@@]1(C(=O)O)CCCN1
Reported half-life values for a set of compounds
Reply numerically in min, unit not repeated.

compound	half-life [min]
COc1ccc(C[C@@H]2NC(=O)[C@H](Cc3cnc[nH]3)NC(=O)[C@H](CC(=O)O)NC(=O)[C@H](Cc3c[nH]c4ccc(F)cc34)NC(=O)[C@H](Cc3c[nH]c4ccc(F)cc34)NC(=O)[C@@H](C)NC(=O)[C@H](CCCC[N+](C)(C)C)NC(=O)CCSCc3cccc(c3)CSCCNC(=O)[C@]3(C)CCCN3C2=O)cc1 (cyclo(DHY(Me)[αMeP][X1][Lys(Me3)][dA][Trp(5-F)][Trp(5-F)]))	69.6

Read the next record carefully.
Input line: Data request, read-out half-life, for "COc1ccc(C[C@@H]2NC(=O)[C@H]([C@@H](C)O)NC(=O)[C@@H]3CCC(=O)NCc4cccc(c4)C[C@H](NC(=O)[C@@H](C)NC(=O)[C@H](C)NC(=O)CCSCc4cccc(c4)CSCCNC(=O)[C@]4(C)CCCN4C2=O)C(=O)N[C@@H](Cc2c[nH]c4ccc(F)cc24)C(=O)N3)cc1"
Output line: 39.6
